# tested_system: Rho-associated protein kinase 1 (Homo sapiens, UniProt Q13464)
# Sequence (Q13464 whole entry): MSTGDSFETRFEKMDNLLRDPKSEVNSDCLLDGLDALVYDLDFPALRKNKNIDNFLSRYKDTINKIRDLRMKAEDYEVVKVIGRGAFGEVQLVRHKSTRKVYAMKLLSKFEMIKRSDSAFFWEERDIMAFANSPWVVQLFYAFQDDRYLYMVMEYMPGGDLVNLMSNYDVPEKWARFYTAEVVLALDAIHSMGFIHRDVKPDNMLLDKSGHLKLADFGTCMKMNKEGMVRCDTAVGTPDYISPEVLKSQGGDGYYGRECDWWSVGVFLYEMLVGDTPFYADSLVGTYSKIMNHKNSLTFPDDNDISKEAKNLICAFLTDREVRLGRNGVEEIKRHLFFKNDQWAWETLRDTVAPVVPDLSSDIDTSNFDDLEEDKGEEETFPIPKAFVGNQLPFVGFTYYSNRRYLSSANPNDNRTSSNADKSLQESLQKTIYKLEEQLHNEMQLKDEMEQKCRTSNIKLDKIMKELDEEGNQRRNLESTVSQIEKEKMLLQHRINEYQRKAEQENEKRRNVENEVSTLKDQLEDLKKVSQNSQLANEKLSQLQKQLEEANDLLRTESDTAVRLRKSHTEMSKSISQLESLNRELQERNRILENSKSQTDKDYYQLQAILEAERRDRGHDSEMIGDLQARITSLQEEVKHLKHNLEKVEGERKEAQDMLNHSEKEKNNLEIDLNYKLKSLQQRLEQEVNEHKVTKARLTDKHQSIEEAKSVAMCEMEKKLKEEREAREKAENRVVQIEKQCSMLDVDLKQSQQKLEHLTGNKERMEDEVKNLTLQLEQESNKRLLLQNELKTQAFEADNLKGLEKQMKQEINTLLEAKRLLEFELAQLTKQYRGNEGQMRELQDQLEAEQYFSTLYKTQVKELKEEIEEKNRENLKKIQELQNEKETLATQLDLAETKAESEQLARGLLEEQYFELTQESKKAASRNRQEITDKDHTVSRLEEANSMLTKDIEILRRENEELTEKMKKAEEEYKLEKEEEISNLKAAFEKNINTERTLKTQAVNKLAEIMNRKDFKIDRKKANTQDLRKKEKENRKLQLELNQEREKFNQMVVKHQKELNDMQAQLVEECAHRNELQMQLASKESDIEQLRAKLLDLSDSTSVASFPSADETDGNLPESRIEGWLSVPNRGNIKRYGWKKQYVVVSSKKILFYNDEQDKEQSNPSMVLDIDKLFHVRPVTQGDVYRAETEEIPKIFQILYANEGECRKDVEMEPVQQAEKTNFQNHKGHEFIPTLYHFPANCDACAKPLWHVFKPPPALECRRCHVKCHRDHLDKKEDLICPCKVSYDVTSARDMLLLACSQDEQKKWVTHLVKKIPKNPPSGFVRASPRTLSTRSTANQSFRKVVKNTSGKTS
pIC50: −log10 of the molar value.
measure: pIC50

// known answers, use as guide
mol_smiles	pIC50
Cc1n[nH]c2ccc(-c3cc(OC[C@@H](N)Cc4ccccc4)cnc3-c3cc(Cl)ccc3O)cc12	5.12
Cc1n[nH]c2ccc(-c3cc(OC[C@@H](N)Cc4ccccc4)cnc3-c3ccco3)cc12	5.89
Cc1n[nH]c2ccc(-c3cc(OC[C@@H](N)Cc4ccccc4)cnc3-c3cc(F)ccc3O)cc12	5.01
Cc1n[nH]c2ccc(-c3cc(OC[C@@H](N)Cc4ccccc4)cnc3-c3ccsc3)cc12	5.22

(A) Cc1n[nH]c2ccc(-c3cc(OC[C@@H](N)Cc4ccccc4)cnc3-c3ccccc3O)cc12
(B) Cc1n[nH]c2ccc(-c3cc(OC[C@@H](N)Cc4ccccc4)cnc3-c3ccoc3)cc12
(C) Cc1n[nH]c2ccc(-c3cc(OC[C@@H](N)Cc4ccccc4)cnc3-c3ccc(O)cc3)cc12
Lookup: Put the entries in order of pIC50, starting with the largest number. # the answer lists labels in the order requested
Found: C, B, A

---

# tested_system: RAC-alpha serine/threonine-protein kinase (Homo sapiens, UniProt P31749)
# Sequence (P31749 whole entry, the tested form may be a part): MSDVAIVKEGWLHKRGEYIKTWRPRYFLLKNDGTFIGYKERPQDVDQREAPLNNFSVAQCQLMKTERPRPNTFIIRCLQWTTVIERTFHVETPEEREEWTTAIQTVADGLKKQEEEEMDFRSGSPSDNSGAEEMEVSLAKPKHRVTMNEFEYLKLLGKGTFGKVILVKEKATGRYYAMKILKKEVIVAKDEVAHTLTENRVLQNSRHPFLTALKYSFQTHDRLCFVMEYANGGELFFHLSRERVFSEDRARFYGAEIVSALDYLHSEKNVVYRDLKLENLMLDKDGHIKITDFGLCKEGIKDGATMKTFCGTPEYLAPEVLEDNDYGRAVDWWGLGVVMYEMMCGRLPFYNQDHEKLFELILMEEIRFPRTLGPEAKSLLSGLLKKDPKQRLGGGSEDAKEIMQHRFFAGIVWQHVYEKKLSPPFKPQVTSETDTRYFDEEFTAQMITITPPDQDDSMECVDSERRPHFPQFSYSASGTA
# protocol_notes: Inhibition of full length AKT1
pIC50: −log10 of the molar value.
measure: pIC50

Reference set, count: 2
mol_smiles	pIC50
Cc1n[nH]c2ccc(-c3cc(OC[C@@H](N)Cc4ccccc4)cnc3-c3cc(F)cc(F)c3O)cc12	7.20
Cc1n[nH]c2ccc(-c3cc(OC[C@@H](N)Cc4ccccc4)cnc3-c3ccc(O)cc3)cc12	6.30

(I) Cc1n[nH]c2ccc(-c3cc(OC[C@@H](N)Cc4ccccc4)cnc3-c3ccc[nH]3)cc12
(II) Cc1occc1-c1ncc(OC[C@@H](N)Cc2c[nH]c3ccccc23)cc1-c1ccc2[nH]nc(C)c2c1
Lookup: # return whichever of I and II has the smaller pIC50 Let me know the label of the one you choose.
Found: I
(I: 7.82, II: 9.10)

---

# tested_system: RAC-alpha serine/threonine-protein kinase (Homo sapiens)
# protocol_notes: Inhibition of full length AKT1
pIC50: −log10 of the molar value.
measure: pIC50

The examples below pair each entry with its known result.
mol_smiles	quantitative_readout
Cc1n[nH]c2ccc(-c3cc(OC[C@@H](N)Cc4c[nH]c5ccncc45)cnc3-c3ccoc3)cc12	7.89
Cc1n[nH]c2ccc(-c3cc(OC[C@@H](N)Cc4ccccc4)cnc3-c3ccoc3)cc12	8.00
Cc1n[nH]c2ccc(-c3cc(OC[C@@H](N)Cc4c[nH]c5ccc(F)cc45)cnc3-c3ccoc3)cc12	9.00

(I) Cc1n[nH]c2ccc(-c3cc(OC[C@@H](N)Cc4c[nH]c5cc(F)ccc45)cnc3-c3ccoc3)cc12
(II) Cc1n[nH]c2ccc(-c3cc(OC[C@@H](N)Cc4ccccc4)cnc3-c3ccccc3O)cc12
(III) Cc1n[nH]c2ccc(-c3cc(OC[C@@H](N)Cc4ccccc4)cnc3-c3cccc(O)c3)cc12
(IV) Cc1n[nH]c2ccc(-c3cc(OC[C@@H](N)Cc4c[nH]c5ncccc45)cnc3-c3ccoc3)cc12
(V) Cc1n[nH]c2ccc(-c3cc(OC[C@@H](N)Cc4ccccc4)cnc3-c3ccccc3)cc12
Lookup: Please list these compounds in decreasing order of pIC50. Provide the labels, sequenced as the question asks.
Found: I, IV, II, V, III

---

# tested_system: RAC-alpha serine/threonine-protein kinase (Homo sapiens)
# protocol_notes: Inhibition of truncated AKT1
measure: IC50 (nM)

(a) Cc1n[nH]c2ccc(-c3cc(OC[C@@H](N)Cc4ccccc4)cnc3C#CC(C)(C)O)cc12
(b) Cc1n[nH]c2ccc(-c3cc(OC[C@@H](N)Cc4ccccc4)cnc3-c3cc(F)ccc3O)cc12
(c) Cc1n[nH]c2ccc(-c3cc(OC[C@@H](N)Cc4ccccc4)cnc3-c3ccco3)cc12
Lookup: Lab note: order the above by reported IC50, lowest first, highest last. Return value: ordered labels per request.
Found: b, c, a
(b: 10 nM, c: 790 nM, a: 10500 nM)

---

# tested_system: RAC-alpha serine/threonine-protein kinase (Homo sapiens, UniProt P31749)
# protocol_notes: Inhibition of full length AKT1
pIC50: −log10 of the molar value.
measure: pIC50

The following compounds have reported results that may help.
mol_smiles	tested_system	pIC50
COc1ccccc1-c1ncc(OC[C@@H](N)Cc2ccccc2)cc1-c1ccc2[nH]nc(C)c2c1	RAC-alpha serine/threonine-protein kinase (Homo sapiens, UniProt P31749)	7.00
Cc1n[nH]c2ccc(-c3cc(OC[C@@H](N)Cc4ccccc4)cnc3-c3cccs3)cc12	RAC-alpha serine/threonine-protein kinase (Homo sapiens, UniProt P31749)	7.10
Cc1n[nH]c2ccc(-c3cc(OC[C@@H](N)Cc4ccccc4)cnc3-c3cc(Cl)ccc3O)cc12	RAC-alpha serine/threonine-protein kinase (Homo sapiens, UniProt P31749)	8.52

(P) Cc1n[nH]c2ccc(-c3cc(OC[C@@H](N)Cc4ccccc4)cnc3C#CCCO)cc12
(Q) Cc1n[nH]c2ccc(-c3cc(OC[C@@H](N)Cc4c[nH]c5cccnc45)cnc3-c3ccoc3)cc12
(R) Cc1n[nH]c2ccc(-c3cc(OC[C@@H](N)Cc4ccccc4)cnc3-c3ccsc3)cc12
(S) Cc1n[nH]c2ccc(-c3cc(OC[C@@H](N)Cc4c[nH]c5c(F)cccc45)cnc3-c3ccoc3)cc12
Lookup: Falling order of pIC50, please. Returns: the labels arranged in the requested order.
Found: S, Q, R, P

---

# tested_system: RAC-alpha serine/threonine-protein kinase (Homo sapiens, UniProt P31749)
# protocol_notes: Inhibition of AKT1 in human BT474 cells assessed as phosphorylation of GSK3
# Type: cell-based, BT-474
pIC50: −log10 of the molar value.
measure: pIC50

Worked examples follow.
mol_smiles	pIC50
Cc1n[nH]c2ccc(-c3cc(OC[C@@H](N)Cc4c[nH]c5c(F)cccc45)cnc3-c3ccoc3)cc12	6.59
Cc1n[nH]c2ccc(-c3cc(OC[C@@H](N)Cc4c[nH]c5ncccc45)cnc3-c3ccoc3)cc12	6.03
Cc1n[nH]c2ccc(-c3cc(OC[C@@H](N)Cc4c[nH]c5ccc(F)cc45)cnc3-c3ccoc3)cc12	6.44

(a) Cc1n[nH]c2ccc(-c3cc(OC[C@@H](N)Cc4c[nH]c5ccncc45)cnc3-c3ccoc3)cc12
(b) Cc1n[nH]c2ccc(-c3cc(OC[C@@H](N)Cc4c[nH]c5cccnc45)cnc3-c3ccoc3)cc12
(c) Cc1occc1-c1ncc(OC[C@@H](N)Cc2c[nH]c3ccccc23)cc1-c1ccc2[nH]nc(C)c2c1
(d) Cc1n[nH]c2ccc(-c3cc(OC[C@@H](N)Cc4c[nH]c5ccccc45)cnc3-c3ccoc3)cc12
(e) Cc1n[nH]c2ccc(-c3cc(OC[C@@H](N)Cc4c[nH]c5cc(F)ccc45)cnc3-c3ccoc3)cc12
Lookup: Sort the compounds on pIC50; start with the lowest figure. // list labels; follow requested order
Found: a, b, d, e, c
(a: 5.17, b: 5.37, d: 6.30, e: 6.66, c: 7.08)
